Where these numbers come from: patent US20020019527A1

biological target: Farnesyltransferase (FTase) (Bos taurus, UniProt P29702+P49355); construct: precipitation from a beef brain homogenate; from tissue; host or cells: bovine brain; assay: Farnesyltransferase inhibition (scintillation proximity assay, [3H]-FPP / biotin-K-ras peptide); assay type: biochemical, bovine; conditions: compound at 10^−6 M; bovine FTase, 37° C., 30 minutes
Experimental Readout: % Inhibition at 10^−6M (%)
Form entry: value (%) — number only.

Molecule: Cc1ccccc1-c1cc(CNC(c2ccc(C#N)c(-c3ccccc3C)c2)c2cncn2C)ccc1C#N (stereo not shown) [Example 26]
Recorded Result: 100
//
Molecule: Cl.Cn1cncc1C(OCc1ccccc1)c1ccc(C#N)c(-c2c3ccccc3cc3ccccc23)c1 (stereo not shown) [Example 7]
Recorded Result: 92
//
Molecule: Cl.Cl.Cn1cncc1C(NCc1ccc(S(C)(=O)=O)cc1)c1ccc(C#N)c(-c2cccc3ccccc23)c1 (stereo not shown) [Example 17]
Recorded Result: 100

Alright, here's another molecule for you.
Data request: Write down the reported % Inhibition at 10^−6M of Cn1cncc1CN(Cc1ccc(C#N)cc1)C(=O)c1ccc(C#N)c(-c2cccc3ccccc23)c1 [Example 191] , test system: Farnesyltransferase (FTase) (Bos taurus, UniProt P29702+P49355).
Data returned: 99
